- Tested on: HeLa Kyoto
- Assay explanation: melting temperature (median over replicates), in situ; higher = more thermally stable
- Condition info: cell cycle stage: mitosis

Sequence input: MEPGPDGPAASGPAAIREGWFRETCSLWPGQALSLQVEQLLHHRRSRYQDILVFRSKTYGNVLVLDGVIQCTERDEFSYQEMIANLPLCSHPNPRKVLIIGGGDGGVLREVVKHPSVESVVQCEIDEDVIQVSKKFLPGMAIGYSSSKLTLHVGDGFEFMKQNQDAFDVIITDSSDPMGPAESLFKESYYQLMKTALKEDGVLCCQGECQWLHLDLIKEMRQFCQSLFPVVAYAYCTIPTYPSGQIGFMLCSKNPSTNFQEPVQPLTQQQVAQMQLKYYNSDVHRAAFVLPEFARKALNDVS [SRM]
melting temperature, °C: 51.9

Sequence input: MPKVKRSRKAPPDGWELIEPTLDELDQKMREAETEPHEGKRKVESLWPIFRIHHQKTRYIFDLFYKRKAISRELYEYCIKEGYADKNLIAKWKKQGYENLCCLRCIQTRDTNFGTNCICRVPKSKLEVGRIIECTHCGCRGCSG [BUD31]
melting temperature, °C: 50.9

Sequence input: MEDSGKTFSSEEEEANYWKDLAMTYKQRAENTQEELREFQEGSREYEAELETQLQQIETRNRDLLSENNRLRMELETIKEKFEVQHSEGYRQISALEDDLAQTKAIKDQLQKYIRELEQANDDLERAKRATIMSLEDFEQRLNQAIERNAFLESELDEKENLLESVQRLKDEARDLRQELAVQQKQEKPRTPMPSSVEAERTDTAVQATGSVPSTPIAHRGPSSSLNTPGSFRRGLDDSTGGTPLTPAARISALNIVGDLLRKVGALESKLASCRNLVYDQSPNRTGGPASGRSSKNRDGGERRPSSTSVPLGDKGLDTSCRWLSKSTTRSSSSC [NDE1]
melting temperature, °C: 53.7

Sequence input: MFVARSIAADHKDLIHDVSFDFHGRRMATCSSDQSVKVWDKSESGDWHCTASWKTHSGSVWRVTWAHPEFGQVLASCSFDRTAAVWEEIVGESNDKLRGQSHWVKRTTLVDSRTSVTDVKFAPKHMGLMLATCSADGIVRIYEAPDVMNLSQWSLQHEISCKLSCSCISWNPSSSRAHSPMIAVGSDDSSPNAMAKVQIFEYNENTRKYAKAETLMTVTDPVHDIAFAPNLGRSFHILAIATKDVRIFTLKPVRKELTSSGGPTKFEIHIVAQFDNHNSQVWRVSWNITGTVLASSGDDGCVRLWKANYMDNWKCTGILKGNGSPVNGSSQQGTSNPSLGSTIPSLQNSLNGSSAGRKHS [SEH1L]
melting temperature, °C: 51.6

Sequence input: MSTAREQPIFSTRAHVFQIDPATKRNWIPAGKHALTVSYFYDATRNVYRIISIGGAKAIINSTVTPNMTFTKTSQKFGQWADSRANTVYGLGFASEQHLTQFAEKFQEVKEAARLAREKSQDGGELTSPALGLASHQVPPSPLVSANGPGEEKLFRSQSADAPGPTERERLKKMLSEGSVGEVQWEAEFFALQDSNNKLAGALREANAAAAQWRQQLEAQRAEAERLRQRVAELEAQAASEVTPTGEKEGLGQGQSLEQLEALVQTKDQEIQTLKSQTGGPREALEAAEREETQQKVQDLETRNAELEHQLRAMERSLEEARAERERARAEVGRAAQLLDVSLFELSELREGLARLAEAAP [HOMER3]
melting temperature, °C: 51.7

Sequence input: MAALKSWLSRSVTSFFRYRQCLCVPVVANFKKRCFSELIRPWHKTVTIGFGVTLCAVPIAQKSEPHSLSSEALMRRAVSLVTDSTSTFLSQTTYALIEAITEYTKAVYTLTSLYRQYTSLLGKMNSEEEDEVWQVIIGARAEMTSKHQEYLKLETTWMTAVGLSEMAAEAAYQTGADQASITARNHIQLVKLQVEEVHQLSRKAETKLAEAQIEELRQKTQEEGEERAESEQEAYLRED [DIABLO]
melting temperature, °C: 53.3

Sequence input: MFRGLSSWLGLQQPVAGGGQPNGDAPPEQPSETVAESAEEELQQAGDQELLHQAKDFGNYLFNFASAATKKITESVAETAQTIKKSVEEGKIDGIIDKTIIGDFQKEQKKFVEEQHTKKSEAAVPPWVDTNDEETIQQQILALSADKRNFLRDPPAGVQFNFDFDQMYPVALVMLQEDELLSKMRFALVPKLVKEEVFWRNYFYRVSLIKQSAQLTALAAQQQAAGKEEKSNGREQDLPLAEAVRPKTPPVVIKSQLKTQEDEEEISTSPGVSEFVSDAFDACNLNQEDLRKEMEQLVLDKKQEETAVLEEDSADWEKELQQELQEYEVVTESEKRDENWDKEIEKMLQEEN [SYAP1]
melting temperature, °C: 53.5

Sequence input: MEMGRRIHLELRNRTPSDVKELVLDNSRSNEGKLEGLTDEFEELEFLSTINVGLTSIANLPKLNKLKKLELSDNRVSGGLEVLAEKCPNLTHLNLSGNKIKDLSTIEPLKKLENLKSLDLFNCEVTNLNDYRENVFKLLPQLTYLDGYDRDDKEAPDSDAEGYVEGLDDEEEDEDEEEYDEDAQVVEDEEDEDEEEEGEEEDVSGEEEEDEEGYNDGEVDDEEDEEELGEEERGQKRKREPEDEGEDDD [ANP32A]
melting temperature, °C: 53.2

Sequence input: MVLLTMIARVADGLPLAASMQEDEQSGRDLQQYQSQAKQLFRKLNEQSPTRCTLEAGAMTFHYIIEQGVCYLVLCEAAFPKKLAFAYLEDLHSEFDEQHGKKVPTVSRPYSFIEFDTFIQKTKKLYIDSRARRNLGSINTELQDVQRIMVANIEEVLQRGEALSALDSKANNLSSLSKKYRQDAKYLNMRSTYAKLAAVAVFFIMLIVYVRFWWL [SEC22B]
melting temperature, °C: 52.2

Sequence input: MAAVKDSCGKGEMATGNGRRLHLGIPEAVFVEDVDSFMKQPGNETADTVLKKLDEQYQKYKFMELNLAQKKRRLKGQIPEIKQTLEILKYMQKKKESTNSMETRFLLADNLYCKASVPPTDKVCLWLGANVMLEYDIDEAQALLEKNLSTATKNLDSLEEDLDFLRDQFTTTEVNMARVYNWDVKRRNKDDSTKNKA [VBP1]
melting temperature, °C: 53.4

----------
- Tested on: HeLa Kyoto
- Assay explanation: solubility change mitosis vs G1/S (difference of NP-40 vs SDS log2 ratios) (log2 ratio difference); higher = more soluble in mitosis

Sequence input: MALDVKSRAKRYEKLDFLGEGQFATVYKARDKNTNQIVAIKKIKLGHRSEAKDGINRTALREIKLLQELSHPNIIGLLDAFGHKSNISLVFDFMETDLEVIIKDNSLVLTPSHIKAYMLMTLQGLEYLHQHWILHRDLKPNNLLLDENGVLKLADFGLAKSFGSPNRAYTHQVVTRWYRAPELLFGARMYGVGVDMWAVGCILAELLLRVPFLPGDSDLDQLTRIFETLGTPTEEQWPDMCSLPDYVTFKSFPGIPLHHIFSAAGDDLLDLIQGLFLFNPCARITATQALKMKYFSNRPGPTPGCQLPRPNCPVETLKEQSNPALAIKRKRTEALEQGGLPKKLIF [CDK7]
solubility change mitosis (log2): -0.142

----------
- Tested on: HeLa Kyoto
- Assay explanation: solubility change mitosis vs G1/S (difference of NP-40 vs SDS log2 ratios) (log2 ratio difference); higher = more soluble in mitosis
Parameter: solubility change mitosis (log2)

Sequence input: MNWELLLWLLVLCALLLLLVQLLRFLRADGDLTLLWAEWQGRRPEWELTDMVVWVTGASSGIGEELAYQLSKLGVSLVLSARRVHELERVKRRCLENGNLKEKDILVLPLDLTDTGSHEAATKAVLQEFGRIDILVNNGGMSQRSLCMDTSLDVYRKLIELNYLGTVSLTKCVLPHMIERKQGKIVTVNSILGIISVPLSIGYCASKHALRGFFNGLRTELATYPGIIVSNICPGPVQSNIVENSLAGEVTKTIGNNGDQSHKMTTSRCVRLMLISMANDLKEVWISEQPFLLVTYLWQYMPTWAWWITNKMGKKRIENFKSGVDADSSYFKIFKTKHD [DHRS7]
Study system: HeLa Kyoto
Parameter: solubility change mitosis (log2)
Readout value: -0.0912
--
Sequence input: MTSMTQSLREVIKAMTKARNFERVLGKITLVSAAPGKVICEMKVEEEHTNAIGTLHGGLTATLVDNISTMALLCTERGAPGVSVDMNITYMSPAKLGEDIVITAHVLKQGKTLAFTSVDLTNKATGKLIAQGRHTKHLGN [ACOT13]
Study system: HeLa Kyoto
Parameter: solubility change mitosis (log2)
Readout value: -0.0848
--
Sequence input: MMWRPSVLLLLLLLRHGAQGKPSPDAGPHGQGRVHQAAPLSDAPHDDAHGNFQYDHEAFLGREVAKEFDQLTPEESQARLGRIVDRMDRAGDGDGWVSLAELRAWIAHTQQRHIRDSVSAAWDTYDTDRDGRVGWEELRNATYGHYAPGEEFHDVEDAETYKKMLARDERRFRVADQDGDSMATREELTAFLHPEEFPHMRDIVIAETLEDLDRNKDGYVQVEEYIADLYSAEPGEEEPAWVQTERQQFRDFRDLNKDGHLDGSEVGHWVLPPAQDQPLVEANHLLHESDTDKDGRLSKAEILGNWNMFVGSQATNYGEDLTRHHDEL [RCN3]
Study system: HeLa Kyoto
Parameter: solubility change mitosis (log2)
Readout value: 0.262
